# System: SUP-T1 (T-Lymphoblastic Leukemia)
# Method: Bliss excess, mean over the matrix (fraction); higher = more synergy
List of Bliss excess values.
Readout Label: Bliss excess

Molecule	Reported Measurement
Cc1c2c(nn1C)CSCc1cc(n(C)n1)CSc1cc(c3ccccc3c1)OCCCc1c(C(=O)O)n(C)c3c-2c(Cl)ccc13 [AZD5991] + CC(=O)O[C@H]1C(=O)[C@@]2(C)[C@H]([C@H](OC(=O)c3ccccc3)[C@]3(O)C[C@H](OC(=O)[C@H](O)[C@@H](NC(=O)c4ccccc4)c4ccccc4)C(C)=C1C3(C)C)[C@]1(OC(C)=O)CO[C@@H]1C[C@@H]2O [Paclitaxel] (first compound max 1 µM, 7x7, partner max 3 µM)	-0.0847
CS(=O)(=O)CCNCc1ccc(-c2ccc3ncnc(Nc4ccc(OCc5cccc(F)c5)c(Cl)c4)c3c2)o1 [Lapatinib] + C[C@@H](Oc1cc(-c2cnn(C3CCNCC3)c2)cnc1N)c1c(Cl)ccc(F)c1Cl [Crizotinib] (first compound max 10 µM, 7x7, partner max 10 µM)	-0.0469
CC(=O)c1c(C)c2cnc(Nc3ccc(N4CCNCC4)cn3)nc2n(C2CCCC2)c1=O [Palbociclib] + Cn1cnc2c(F)c(Nc3ccc(Br)cc3Cl)c(C(=O)NOCCO)cc21 [Selumetinib] (first compound max 10 µM, 7x7, partner max 10 µM)	-0.0478

###

# Tested on: 8305C (Thyroid Gland Carcinoma)
# Method: combination Emax (second highest fraction inhibited in the dose matrix, 72 h); higher = more inhibition; extreme values may be limits of the assay

Compound	combination Emax
O=C(c1cc(Cc2n[nH]c(=O)c3ccccc23)ccc1F)N1CCN(C(=O)C2CC2)CC1 [Olaparib] + CC1(C)CCC(CN2CCN(c3ccc(C(=O)NS(=O)(=O)c4ccc(NCC5CCOCC5)c([N+](=O)[O-])c4)c(Oc4cnc5[nH]ccc5c4)c3)CC2)=C(c2ccc(Cl)cc2)C1 [Venetoclax] (first compound max 10 µM, 7x7, partner max 1 µM)	0.232
Cc1c2c(nn1C)CSCc1cc(n(C)n1)CSc1cc(c3ccccc3c1)OCCCc1c(C(=O)O)n(C)c3c-2c(Cl)ccc13 [AZD5991] + CN(C)CCCOc1ccc(-c2ccc3ncc4c(c3c2)n(C2CCOCC2)c(=O)n4C)cn1 [AZD0156] (first compound max 1 µM, 7x7, partner max 1 µM)	0.325
CN(CCO)CC[C@H](CSc1ccccc1)Nc1ccc(S(=O)(=O)NC(=O)c2ccc(N3CCC([C@@H](O)c4ccccc4-c4ccc(Cl)cc4)CC3)cc2)cc1S(=O)(=O)C(F)(F)F [AZD4320] + Cn1cnc2c(F)c(Nc3ccc(Br)cc3Cl)c(C(=O)NOCCO)cc21 [Selumetinib] (first compound max 1 µM, 7x7, partner max 3 µM)	0.71
CCN(CCO)CCCOc1ccc2c(Nc3cc(CC(=O)Nc4cccc(F)c4)[nH]n3)ncnc2c1 [AZD2811] + O=C(c1cc(Cc2n[nH]c(=O)c3ccccc23)ccc1F)N1CCN(C(=O)C2CC2)CC1 [Olaparib] (first compound max 1 µM, 7x7, partner max 10 µM)	0.169
COc1cc2c(cc1OCCCCCOc1cc3c(cc1OC)C(=O)N1C=C(C)C[C@H]1C=N3)N=C[C@@H]1CC(C)=CN1C2=O [SG3199] + O=C(c1cc(Cc2n[nH]c(=O)c3ccccc23)ccc1F)N1CCN(C(=O)C2CC2)CC1 [Olaparib] (first compound max 0.001 µM, 7x7, partner max 10 µM)	0.141
Cc1c2c(nn1C)CSCc1cc(n(C)n1)CSc1cc(c3ccccc3c1)OCCCc1c(C(=O)O)n(C)c3c-2c(Cl)ccc13 [AZD5991] + Cc1cc2ncnn2cc1Nc1ncc2c(n1)n(C1CCOCC1)c(=O)n2C [AZD7648] (first compound max 1 µM, 7x7, partner max 10 µM)	0.432
Cn1cnc2c(F)c(Nc3ccc(Br)cc3Cl)c(C(=O)NOCCO)cc21 [Selumetinib] + C[C@@H]1COCCN1C2=NC(=NC(=C2)C3(CC3)[S@](=N)(=O)C)C4=C5C=CNC5=NC=C4 [AZD6738] (first compound max 10 µM, 7x7, partner max 10 µM)	0.534

###

List of Bliss excess values.
# Test system: SW626 (Colorectal Carcinoma)
# Method: Bliss excess, mean over the matrix (fraction); higher = more synergy
Readout Label: Bliss excess

Compound	Target Or Test System	Readout Label	Reported Measurement
CN(CCO)CC[C@H](CSc1ccccc1)Nc1ccc(S(=O)(=O)NC(=O)c2ccc(N3CCC([C@@H](O)c4ccccc4-c4ccc(Cl)cc4)CC3)cc2)cc1S(=O)(=O)C(F)(F)F [AZD4320] + C[C@@H]1COCCN1C2=NC(=NC(=C2)C3(CC3)[S@](=N)(=O)C)C4=C5C=CNC5=NC=C4 [AZD6738] (first compound max 1 µM, 7x7, partner max 10 µM)	SW626 (Colorectal Carcinoma)	Bliss excess	-0.0606
CCN(CCO)CCCOc1ccc2c(Nc3cc(CC(=O)Nc4cccc(F)c4)[nH]n3)ncnc2c1 [AZD2811] + O=C(c1cc(Cc2n[nH]c(=O)c3ccccc23)ccc1F)N1CCN(C(=O)C2CC2)CC1 [Olaparib] (first compound max 1 µM, 7x7, partner max 10 µM)	SW626 (Colorectal Carcinoma)	Bliss excess	-0.0134
CC1(C)CCC(CN2CCN(c3ccc(C(=O)NS(=O)(=O)c4ccc(NCC5CCOCC5)c([N+](=O)[O-])c4)c(Oc4cnc5[nH]ccc5c4)c3)CC2)=C(c2ccc(Cl)cc2)C1 [Venetoclax] + Cc1cc2ncnn2cc1Nc1ncc2c(n1)n(C1CCOCC1)c(=O)n2C [AZD7648] (first compound max 1 µM, 7x7, partner max 10 µM)	SW626 (Colorectal Carcinoma)	Bliss excess	-0.0098

###

# Test system: HCC-15 (Squamous Cell Lung Carcinoma)
# Method: combination Emax (second highest fraction inhibited in the dose matrix, 72 h); higher = more inhibition; extreme values may be limits of the assay
List of combination Emax values.
Readout Label: combination Emax

Molecule	Reported Measurement
COc1cccc(OCCCN)c1-c1cc(Nc2cnc(C#N)cn2)n[nH]1 [Prexasertib] + CN(C)CCCOc1ccc(-c2ccc3ncc4c(c3c2)n(C2CCOCC2)c(=O)n4C)cn1 [AZD0156] (first compound max 1 µM, 7x7, partner max 1 µM)	0.187
COc1cccc(OCCCN)c1-c1cc(Nc2cnc(C#N)cn2)n[nH]1 [Prexasertib] + C=CCn1c(=O)c2cnc(Nc3ccc(N4CCN(C)CC4)cc3)nc2n1-c1cccc(C(C)(C)O)n1 [AZD1775] (first compound max 1 µM, partner max 1 µM)	0.542

###

# System: SK-OV-3 (Ovarian Carcinoma)
# Method: combination Emax (second highest fraction inhibited in the dose matrix, 72 h); higher = more inhibition; extreme values may be limits of the assay
List of combination Emax values.
Readout Label: combination Emax

Compound	Reported Measurement
COc1nnc2ccc(N3CCC(c4ccc(OCCN5CCN(C)C(=O)[C@H]5C)cc4)CC3)nn12 [AZD5153] + CC1(C)CCC(CN2CCN(c3ccc(C(=O)NS(=O)(=O)c4ccc(NCC5CCOCC5)c([N+](=O)[O-])c4)c(Oc4cnc5[nH]ccc5c4)c3)CC2)=C(c2ccc(Cl)cc2)C1 [Venetoclax] (first compound max 1 µM, 7x7, partner max 1 µM)	0.383
COc1cccc(OCCCN)c1-c1cc(Nc2cnc(C#N)cn2)n[nH]1 [Prexasertib] + Cc1cc2ncnn2cc1Nc1ncc2c(n1)n(C1CCOCC1)c(=O)n2C [AZD7648] (first compound max 1 µM, 7x7, partner max 10 µM)	0.842
CC1(C)CCC(CN2CCN(c3ccc(C(=O)NS(=O)(=O)c4ccc(NCC5CCOCC5)c([N+](=O)[O-])c4)c(Oc4cnc5[nH]ccc5c4)c3)CC2)=C(c2ccc(Cl)cc2)C1 [Venetoclax] + COc1cc(Nc2ncc3c(n2)-c2ccc(Cl)cc2C(c2c(F)cccc2OC)=NC3)ccc1C(=O)O [Alisertib] (first compound max 1 µM, 7x7, partner max 10 µM)	0.315

###

# Test system: HCC-15 (Squamous Cell Lung Carcinoma)
# Method: Bliss excess, mean over the matrix (fraction); higher = more synergy
List of Bliss excess values.
Readout Label: Bliss excess

Compound	Reported Measurement
NC1(C(=O)N[C@@H](CCO)c2ccc(Cl)cc2)CCN(c2ncnc3[nH]ccc23)CC1 [Capivasertib] + CCN(CCO)CCCOc1ccc2c(Nc3cc(CC(=O)Nc4cccc(F)c4)[nH]n3)ncnc2c1 [AZD2811] (first compound max 10 µM, 7x7, partner max 1 µM)	-0.0366
Cn1cnc2c(F)c(Nc3ccc(Br)cc3Cl)c(C(=O)NOCCO)cc21 [Selumetinib] + C=CCn1c(=O)c2cnc(Nc3ccc(N4CCN(C)CC4)cc3)nc2n1-c1cccc(C(C)(C)O)n1 [AZD1775] (first compound max 10 µM, partner max 1 µM)	0.0018
CCN(CCO)CCCOc1ccc2c(Nc3cc(CC(=O)Nc4cccc(F)c4)[nH]n3)ncnc2c1 [AZD2811] + C=CCn1c(=O)c2cnc(Nc3ccc(N4CCN(C)CC4)cc3)nc2n1-c1cccc(C(C)(C)O)n1 [AZD1775] (first compound max 1 µM, partner max 1 µM)	-0.0049
NC1(C(=O)N[C@@H](CCO)c2ccc(Cl)cc2)CCN(c2ncnc3[nH]ccc23)CC1 [Capivasertib] + C[C@@H]1COCCN1C2=NC(=NC(=C2)C3(CC3)[S@](=N)(=O)C)C4=C5C=CNC5=NC=C4 [AZD6738] (first compound max 10 µM, 7x7, partner max 10 µM)	-0.0459
